- target_desc: ScMyo3
- assay_summary: SPOT peptide array binding signal intensity (averaged, normalized) (arbitrary units (background-subtracted, floor 0; scale differs between SH3 domains)); higher = stronger binding of the SH3 domain to the peptide
readout_name: SPOT peptide array binding signal intensity

>>> result("GRSRLFPHSPLGRSS")
0.25
>>> result("PKRRAPPPVPKKPSS")
865
>>> result("LLIRWLILMPLVGSR")
5
>>> result("TKIRRRPQQPLTDFT")
1
>>> result("NHSRSLFSLPGNQQS")
29.5
>>> result("GKLKHIPRRPYEIER")
1.5
>>> result("RRRRRPHRIERPLSN")
6.5
>>> result("RSKRLFPVRPMATAH")
5.5
>>> result("RPVPPPPPMRTTTEG")
569
>>> result("VPPVPLPFGIPPFPM")
867
>>> result("VPPPMQPPPIESSNL")
854
>>> result("TYNRTAFQIPGDQSI")
3
>>> result("NFFRKKLGIPRKLKR")
"≤ 0"
>>> result("NGRRRPKFRVQLSGN")
1.5

These measurements were taken from the supplement of paper PMC4466140.
